Data credit: paper PMC10893631

- Test system: SK-MEL-28
- PROTOCOL_SUMMARY: NCI SRB growth inhibition (single dose 10 µM / five-dose)
- Type: cell-based, human
- TEST_SETTINGS: Homo sapiens; SK-MEL-28 (Melanoma), 10 µM; read-out: GI%
Please go through the items and note down their inhibition at 10 µM.

// each listed compound needs a value for inhibition at 10 µM
1. COc1ccc(OC)c(C=NNC(=O)c2ccc3[nH]c(-c4ccc(Cl)cc4)nc3c2)c1 [8t]
2. COc1ccc(-c2nc3cc(C(=O)NN=Cc4ccc(OC)c(O)c4)ccc3[nH]2)cc1 [8l]
3. COc1cccc(C=NNC(=O)c2ccc3[nH]c(-c4ccccc4)nc3c2)c1O [8d]
4. O=C(NN=Cc1ccccc1O)c1ccc2[nH]c(-c3ccc(Cl)cc3)nc2c1 [8o]

1: 14.6%; 2: 52.5%; 3: 96.2%; 4: 78.2%

----------
- Tested on: SK-OV-3
- PROTOCOL_SUMMARY: NCI SRB growth inhibition (single dose 10 µM / five-dose)
- Type: cell-based, human
- TEST_SETTINGS: Homo sapiens; SK-OV-3 (Ovarian cancer), 10 µM; read-out: GI%
TEST_READOUT: inhibition at 10 µM (%)
Numbers only, in %.

// each listed compound needs a value for inhibition at 10 µM
1. O=C(NN=Cc1cccc(O)c1)c1ccc2[nH]c(-c3ccc(Cl)cc3)nc2c1 [8p]
2. O=C(NN=Cc1cccc(O)c1)c1ccc2[nH]c(-c3ccccc3)nc2c1 [8b]
3. COc1ccc(OC)c(C=NNC(=O)c2ccc3[nH]c(-c4ccc(Cl)cc4)nc3c2)c1 [8t]

[36.2, 25.6, 15.1]

----------
Please go through the items and note down their inhibition at 10 µM.
- System: HT29
- PROTOCOL_SUMMARY: NCI SRB growth inhibition (single dose 10 µM / five-dose)
- Type: cell-based, human
- TEST_SETTINGS: Homo sapiens, HT-29; HT29 (Colon cancer), 10 µM; read-out: GI%

Worked cases, answers included:
{"COMPOUND": "COc1cccc(C=NNC(=O)c2ccc3[nH]c(-c4ccc(Cl)cc4)nc3c2)c1 [8q]", "ASSAY_TARGET": "HT29", "TEST_READOUT": "inhibition at 10 µM", "RECORDED_MEASUREMENT": "> 100%"}
{"COMPOUND": "COc1ccc(C=NNC(=O)c2ccc3[nH]c(-c4ccc(Cl)cc4)nc3c2)cc1O [8s]", "ASSAY_TARGET": "HT29", "TEST_READOUT": "inhibition at 10 µM", "RECORDED_MEASUREMENT": "> 100%"}
{"COMPOUND": "COc1ccc(-c2nc3cc(C(=O)NN=Cc4cccc(OC)c4O)ccc3[nH]2)cc1 [8k]", "ASSAY_TARGET": "HT29", "TEST_READOUT": "inhibition at 10 µM", "RECORDED_MEASUREMENT": "> 100%"}

For the next question, use this compound.
Supply inhibition at 10 µM measured with HT29 for COc1ccc(-c2nc3cc(C(=O)NN=Cc4cccc(OC)c4)ccc3[nH]2)cc1 [8j] .
> 100%

----------
- System: DU-145
- PROTOCOL_SUMMARY: NCI SRB growth inhibition (single dose 10 µM / five-dose)
- Type: cell-based, human
- TEST_SETTINGS: Homo sapiens; DU-145 (Prostate cancer), 10 µM; read-out: GI%
- Experimental: Screening of cytotoxic activity against a panel of sixty human tumor cell lines The selected compounds by NCI were evaluated for their anticancer activity in a two- stage process. […] Using the seven absorbance measurements [time zero, (Tz), control growth, (C), and test growth in the presence of drug at the five concentration levels (Ti)], the percentage growth is calculated at each of the drug concentrations levels. […] Three dose response parameters are calculated for each experimental agent. […]
Please go through the items and note down their inhibition at 10 µM.

Worked cases, answers included:
{"COMPOUND_STRING": "COc1ccc(C=NNC(=O)c2ccc3[nH]c(-c4ccccc4)nc3c2)cc1O", "TEST_READOUT": "inhibition at 10 µM", "RECORDED_MEASUREMENT": "< 5%"}
{"COMPOUND_STRING": "O=C(NN=Cc1ccccc1O)c1ccc2[nH]c(-c3ccc(Cl)cc3)nc2c1", "TEST_READOUT": "inhibition at 10 µM", "RECORDED_MEASUREMENT": "> 100%"}

For the next question, use this compound.
Given `COc1cc(C=NNC(=O)c2ccc3[nH]c(-c4ccc(Cl)cc4)nc3c2)cc(OC)c1OC` , respond with its inhibition at 10 µM.
> 100%

----------
Please go through the items and note down their inhibition at 10 µM.
- System: SK-MEL-28
- PROTOCOL_SUMMARY: NCI SRB growth inhibition (single dose 10 µM / five-dose)
- Assay type: cell-based, human
- TEST_SETTINGS: Homo sapiens; SK-MEL-28 (Melanoma), 10 µM; read-out: GI%
Give bare numbers, in %.

// each listed compound needs a value for inhibition at 10 µM
1. COc1ccc(-c2nc3cc(C(=O)NN=Cc4cc(OC)c(OC)c(OC)c4)ccc3[nH]2)cc1 [8n]
2. COc1ccc(-c2nc3cc(C(=O)NN=Cc4cc(OC)ccc4OC)ccc3[nH]2)cc1 [8m]
3. COc1ccc(C=NNC(=O)c2ccc3[nH]c(-c4ccc(Cl)cc4)nc3c2)cc1O [8s]
4. COc1cccc(C=NNC(=O)c2ccc3[nH]c(-c4ccccc4)nc3c2)c1 [8c]

1. 31.4
2. 5.7
3. 70.8
4. 20.4
